Data origin: the supplement of paper PMC11451515

Reported cell viability values are given for each entry in this list.
# Tested on: NOMO1
# assayRemarks: cell viability relative to DMSO control; higher = less cytotoxic
# measurementParameters: RPMI 5 mM glucose + 10% dialyzed FBS; 48 h; 0.00234 µM
Numeric answer only, unit % assumed.

CC(C)(O)CC(=O)NCCn1ccc2ncnc(Nc3ccc(Oc4cccc(C(F)(F)F)c4)c(Cl)c3)c21
100
CC(C(=O)O)c1ccc2c(c1)CC(=O)c1ccccc1S2 (configuration not stated)
116
COC(=O)c1ccc2c(c1)NC(=O)/C2=C(\Nc1ccc(N(C)C(=O)CN2CCN(C)CC2)cc1)c1ccccc1
93
NC[C@H]1O[C@H](O[C@@H]2[C@H](O)[C@@H](O[C@H]3O[C@H](CO)[C@@H](O)[C@H](N)[C@H]3O)[C@H](N)C[C@@H]2N)[C@H](O)[C@@H](O)[C@@H]1O
128
O=C(c1ccccc1)c1ccc2n1CCC2C(=O)O (configuration not stated)
115

Exercise: Can you look up cell viability on NOMO1 for N[C@@H]1CONC1=O ?
Solution: 98.8

Exercise: Can you look up cell viability on NOMO1 for COc1ccc(C(=O)CC2(O)C(=O)Nc3c(Cl)ccc(Cl)c32)cc1 (configuration not stated) ?
Solution: 111

Exercise: Can you look up cell viability on NOMO1 for O=C(O)c1cccnc1Nc1cccc(C(F)(F)F)c1 ?
Solution: 101
